System: 266 human PDZ domains (PDZome)
protocolSummary: Holdup assay (chromatographic retention, PDZome-binding profile, BI)
Design: key: binding intensity: 0.00 = no binding, 1.00 = maximal binding
conditionSet: PDZ domain RHPN2-1
*1 amine or outer side, *2 acyl side, *3 side chain or, on linkers, in order; H or OH if unused. Where a SMILES comes first, the peptide text is derived from it. The star is where a group is joined. X1 = O=C(CCCC[C@@H]1SC[C@@H]2NC(=O)N[C@@H]21)NCCCOCCOCCOCCCN*; Suc = O=C(CCC(=O)[*:2])[*:1]
parameter: BI
Numbers only.

Known results for compounds:
Entry CC[C@H](C)[C@H](NC(=O)[C@H](CCC(N)=O)NC(=O)[C@@H](NC(=O)[C@H](Cc1c[nH]cn1)NC(=O)[C@H](CCC(N)=O)NC(=O)[C@H](CC(=O)O)NC(=O)[C@H](CCC(=O)O)NC(=O)[C@H](CC(=O)O)NC(=O)CCC(=O)NCCCOCCOCCOCCCNC(=O)CCCC[C@@H]1SC[C@@H]2NC(=O)N[C@@H]21)[C@@H](C)O)C(=O)N[C@H](C(=O)N[C@@H](CCCNC(=N)N)C(=O)N[C@H](C(=O)O)C(C)C)[C@@H](C)O [PTEN_KR] ({X1-Suc}-DEDQHTQITRV-OH) ; assay system 266 human PDZ domains (PDZome); BI recorded at -0.087

Entry CC[C@H](C)[C@H](NC(=O)[C@H](CCC(N)=O)NC(=O)[C@@H](NC(=O)[C@H](Cc1c[nH]cn1)NC(=O)[C@H](CCC(N)=O)NC(=O)[C@H](CC(=O)O)NC(=O)[C@H](CCC(=O)O)NC(=O)[C@H](CC(=O)O)NC(=O)CCC(=O)NCCCOCCOCCOCCCNC(=O)CCCC[C@@H]1SC[C@@H]2NC(=O)N[C@@H]21)[C@@H](C)O)C(=O)N[C@H](C(=O)N[C@@H](CCCCN)C(=O)N[C@H](C(=O)O)C(C)C)[C@@H](C)O ; assay system 266 human PDZ domains (PDZome); BI recorded at -0.079

Entry CC[C@H](C)[C@H](NC(=O)[C@H](CCC(N)=O)NC(=O)[C@@H](NC(=O)[C@H](Cc1c[nH]cn1)NC(=O)[C@H](CCC(N)=O)NC(=O)[C@H](CC(=O)O)NC(=O)[C@H](CCC(=O)O)NC(=O)[C@H](CC(=O)O)NC(=O)[C@H](Cc1ccccc1)NC(=O)[C@@H]1CCCN1C(=O)CCC(=O)NCCCOCCOCCOCCCNC(=O)CCCC[C@@H]1SC[C@@H]2NC(=O)N[C@@H]21)[C@@H](C)O)C(=O)N[C@H](C(=O)N[C@@H](CCCCN)C(=O)N[C@H](C(=O)O)C(C)C)[C@@H](C)O [PTEN_13] ({X1-Suc}-PFDEDQHTQITKV-OH) ; assay system 266 human PDZ domains (PDZome); BI recorded at 0.033

Pending compound:
Entry CC[C@H](C)[C@H](NC(=O)[C@H](CCC(N)=O)NC(=O)[C@@H](NC(=O)[C@H](Cc1c[nH]cn1)NC(=O)[C@H](CCC(N)=O)NC(=O)[C@H](CC(=O)O)NC(=O)[C@H](CCC(=O)O)NC(=O)[C@H](CC(=O)O)NC(=O)CCC(=O)NCCCOCCOCCOCCCNC(=O)CCCC[C@@H]1SC[C@@H]2NC(=O)N[C@@H]21)[C@@H](C)O)C(=O)N[C@H](C(=O)N[C@@H](CCCCNC(C)=O)C(=O)N[C@H](C(=O)O)C(C)C)[C@@H](C)O ; assay system 266 human PDZ domains (PDZome); BI recorded at -0.044
